Data origin, for the record: ChEMBL document CHEMBL1201862

# Tested on: SW-620
# ASSAY_COMMENT: NCI tumour cell line growth inhibition, 48 h
Active and inactive are the calls of the source. Cut-off read from the data, not from the text of the source: active = GI50 up to about 1.1 µM and inactive = higher.
Give your call using only these classes: active, inactive

O=C1CC(/C=C/c2ccco2)=C(O)C1=O : inactive

Called result for "CC(C)(C)C(=O)/C=C/c1ccc(Oc2ccccc2)cc1"
inactive

// next record Cc1c(CNc2ccc(Cl)c(C(=O)NC(CC(=O)O)C(=O)O)c2)ccc2nc(N)nc(N)c12 (stereo unspecified)
active

// next record CC(=O)Nc1cc(/C=C\C(=O)N2CC(CCl)c3c2cc(N)c2ccccc32)n(C)n1 (stereo unspecified)
active

// next record CC(C)(C)OC(=O)NC1CCCC1C(O)(C1=CCCC1)C1=CCCC1 (stereo unspecified)
inactive

// next record "CCCCCCCCCCCC(=O)OC[C@H](C[As](=O)(O)O)OC(=O)CCCCCCCCCCC"
inactive

// next record "O=C1CCC(=O)c2cc(Br)ccc2N1"
inactive

// next record CC1(C)C2CCC1(CS(=O)(=O)Nc1ccccc1)C(=O)C2 (stereo unspecified)
inactive

// next record "O=C(CCN1CCOCC1)Nc1ccc2sc3ccccc3c(=O)c2n1"
inactive

// next record "COc1ccc(/C=C/COC(C)=O)cc1OC"
inactive

// next record O=C(c1ccccc1)[C@H]1Nc2cnccc2C2c3ccccc3CC21 (stereo partly specified)
inactive

###

# Tested on: MDA-MB-435
# ASSAY_COMMENT: NCI tumour cell line growth inhibition, 48 h
Activity calls are given as the source filed them. Rule as the data show it: active = GI50 up to about 1.1 µM and inactive = higher.
Give your call using only these classes: 1 for active, -1 for inactive

# example entries with known answers
COc1cccc(CCn2c(N)c(-c3ccccc3)c3ccc([N+](=O)[O-])cc3c2=O)c1 : -1
Cc1ccc2c(c1C)CC1(Cc3c(ccc4c3CCC4)C1=O)C2=O (stereo not drawn) : -1
c1ccc2c(c1)CCCN1CCc3ccccc3C21 (stereo not drawn) : -1

Called result for "c1ccc(/C(=N\Nc2nc3ccccc3[nH]2)c2ccccn2)cc1"
1

// next record "CCN(CC)c1nc(=O)c(C(=O)C(C)(C)C)c(C(C)(C)C)o1"
-1

// next record "Cc1ccc(/C=C2\CCC/C(=C\c3ccc(O)c(CN4CCCCC4)c3)C2=O)cc1"
-1

// next record CC1OC2/C=C\CC(O)C(C)(C)C3CCC(C)C4(O3)O[B-]35OC(C(=O)OC1C2)C1(OC(CCC1C)C(C)(C)C(O)C/C=C\C1CC(OC(=O)C4O3)C(C)O1)O5 (stereo not drawn)
-1

// next record "O=P1(O)c2ccccc2Nc2cc(C(F)(F)F)ccc21"
-1

###

# Tested on: HCT-116
# ASSAY_COMMENT: NCI tumour cell line growth inhibition, 48 h
Calls of active or inactive are those of the source. No stated cut-off is given here; in the data, active = GI50 up to about 1.1 µM and inactive = higher.
TEST_READOUT: GI50

CCOC(=O)NC(C(F)(F)F)(C(F)(F)F)P(=O)(OC(C)C)OC(C)C : > 100 µM (inactive)
Brc1ccc2c3c1[C@@H]1O[C@@H]1c1cccc(c1-3)[C@@H]1O[C@H]21 : 13.8 µM (inactive)
CN(C)C1=NC2=S(SC(Nc3ccccc3)=N2)S1 (stereo not given) : 10.5 µM (inactive)
CCCCCCCCCCCCCCCCCCNc1ccn(C2OC(COP(=O)(O)OCC3OC(n4cc(C)c(=O)[nH]c4=O)CC3O)C(O)C2O)c(=O)n1 (stereo not given) : 17.1 µM (inactive)

Alright, here's another compound for you.
Which GI50 value belongs to "O=P1(O)c2ccccc2Nc2cc(C(F)(F)F)ccc21" ?
> 100 µM (inactive)
